# test: chemical genetic growth profiling, strain panel (AID 1159580);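 also: tested at 20 µM; growth read once vehicle control cultures reached saturation at 30 °C; 1 = growth at the plate median or of vehicle wells; lower values mean less growth of the strain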
# cond: S. cerevisiae deletion strains, growth OD, locus YJL164C, strain tpk1, active compounds read low
Among all 5,500 compounds or so, about 2,000 (36%) were called active. Inconclusive results (about 18%) are left out. The list shows a part of the results.
observable: normalized growth

- compound: "CC(CN1c2ccccc2Sc2ccccc21)N(C)C (configuration not stated)"
  measuredResult: 0.964
- compound: "c1ccc2nc(N3CCNCC3)ccc2c1"
  measuredResult: 1.01
- compound: "CC(=O)N=c1sc(S(N)(=O)=O)nn1C"
  measuredResult: 1.01
- compound: "O=C(Nc1ccccc1)Nc1ccccc1"
  measuredResult: 0.961
- compound: "C/C=C/C(=O)N(CC)c1ccccc1C"
  measuredResult: 1.01
- compound: "CN1CCN(C2=Nc3ccccc3Oc3ccc(Cl)cc32)CC1"
  measuredResult: 0.998
- compound: "Nc1cc(C(Cl)=C(Cl)Cl)c(S(N)(=O)=O)cc1S(N)(=O)=O"
  measuredResult: 0.995
- compound: "Clc1ccc2c(c1)C(N1CCNCC1)=Nc1ccccc1O2"
  measuredResult: 0.964
- compound: "COc1ccc(C(=O)N2CCCC2=O)cc1"
  measuredResult: 0.985
- compound: "COc1cc([C@@H]2c3cc4c(cc3[C@H](OC(C)=O)[C@H]3COC(=O)[C@@H]23)OCO4)cc(OC)c1OC"
  measuredResult: 1.01
- compound: "CO[C@]12C[C@@H](COC(=O)c3cncc(Br)c3)CN(C)[C@@H]1Cc1cn(C)c3cccc2c13"
  measuredResult: 0.997
- compound: "CSc1ccc2c(c1)N(CCC1CCCCN1C)c1ccccc1S2 (configuration not stated)"
  measuredResult: 0.977
- compound: "C[C@]12C=CC(=O)C=C1CCC1C3C[C@@H](O)[C@](O)(C(=O)CO)[C@@]3(C)C[C@H](O)[C@@]12F (some centres not stated)"
  measuredResult: 1.01
- compound: "CNCCCN1c2ccccc2CCc2ccccc21"
  measuredResult: 0.984
- compound: "CCCCCC1C(=O)CCC1CC(=O)OC (configuration not stated)"
  measuredResult: 0.992
- compound: "CC1(C)C(O)CC(O)C2(C)C1CC(O)C1(C)C2CCC2(C)C(c3ccoc3)OC(=O)C3OC321 (configuration not stated)"
  measuredResult: 0.989
- compound: "COc1cc(OC)c(OC)cc1C=O"
  measuredResult: 1
- compound: "CC(=O)Nc1nnc(S(N)(=O)=O)s1"
  measuredResult: 1
- compound: "CC(=O)O[C@H]1C[C@@H](OC(C)=O)C(C)(C)C2CC(=O)[C@]3(C)C(CC[C@@]4(C)[C@H](c5ccoc5)OC(=O)[C@H]5O[C@]543)[C@]21C (some centres not stated)"
  measuredResult: 0.994
- compound: "C[C@@H]1CC2C3C[C@H](F)C4=CC(=O)C=C[C@]4(C)[C@@]3(F)[C@@H](O)C[C@]2(C)[C@@]1(O)C(=O)COC(=O)C(C)(C)C (some centres not stated)"
  measuredResult: 0.989
- compound: "c1ccc2c(c1)CN1CCCC1=N2"
  measuredResult: 1.01
- compound: "COc1cc(C)c(C(=O)Oc2cc(C)c(C(=O)O)c(O)c2C)c(OC)c1C"
  measuredResult: 0.993
